These measurements were taken from patent US9962369B2.

Assay: Transdermal delivery of melatonin: plasma level of melatonin after applying composition to skin of a subject
Conditions: human, plasma, topical, 3 mg, Plasma level of melatonin, Tyrosine propyl ester 269.5 mM, 0.30 mL applied to skin, 0 hr after transdermal administration
outcome-measure: concentration at 0 hr (ng/mL)
Numeric only. Scale: ng/mL

Using the record for `COc1ccc2[nH]cc(CCNC(C)=O)c2c1` , report its concentration at 0 hr.
0

====

Experiment: Transdermal delivery of melatonin: plasma level of melatonin after applying composition to skin of a subject
Details: human, plasma, topical, Plasma level of melatonin, 3-(Diethylamino)propyl 2-acetoxybenzoate hydrochloride 212.24 mM, 0.375 mL applied to skin, 1 hr after transdermal administration
outcome-measure: concentration at 1 h (ng/mL)
Your answer should be a plain number; it is taken to be in ng/mL.

Which concentration at 1 h reading was recorded for the molecule COc1ccc2[nH]cc(CCNC(C)=O)c2c1 [Melatonin] ?
2.1

====

Test: Transdermal delivery of melatonin: plasma level of melatonin after applying composition to skin of a subject
Conditions: human, plasma, topical, 3 mg, Plasma level of melatonin, Helper esters: None (0 mM), 2.0 mL applied to skin, 1 hr after transdermal administration
outcome-measure: concentration at 1 h (ng/mL)
State just the number; it will be interpreted in ng/mL.

Which concentration at 1 h is reported for this molecule? `COc1ccc2[nH]cc(CCNC(C)=O)c2c1`
0.1

====

Assay: Transdermal delivery of melatonin: plasma level of melatonin after applying composition to skin of a subject
Conditions: human, plasma, topical, Plasma level of melatonin, Proline hexyl ester hydrochloride 296.94 mM, 0.60 mL applied to skin, 1 hr after transdermal administration
outcome-measure: concentration at 1 h (ng/mL)
Give the value, in units of ng/mL, as a plain number.

I would be grateful if you could share the reported concentration at 1 h for `COc1ccc2[nH]cc(CCNC(C)=O)c2c1` .
1.1

====

Test: Transdermal delivery of melatonin: plasma level of melatonin after applying composition to skin of a subject
Conditions: human, plasma, topical, 3 mg, Plasma level of melatonin, Tyrosine isopropyl ester 269.50 mM, 0.30 mL applied to skin, 8 hr after transdermal administration
outcome-measure: concentration at 8 hr
Please answer in the form of a number followed by its unit of measurement.

Please report the recorded concentration at 8 hr for `COc1ccc2[nH]cc(CCNC(C)=O)c2c1` .
2.8 ng/mL

====

Assay: Transdermal delivery of melatonin: plasma level of melatonin after applying composition to skin of a subject
Details: human, plasma, topical, Plasma level of melatonin, salt of tyrosine isopropyl ester, A− = Citrate ion, 168.49 mM, 0.30 mL applied, 1 hr after transdermal administration
outcome-measure: concentration at 1 h (ng/mL)
Write the answer as a number in ng/mL, unit excluded.

What does the data say about its concentration at 1 h? Entry: `COc1ccc2[nH]cc(CCNC(C)=O)c2c1`
2

====

Test: Transdermal delivery of melatonin: plasma level of melatonin after applying composition to skin of a subject
Conditions: human, plasma, topical, 3 mg, Plasma level of melatonin, salt of tryptophan isopropyl ester, A− = AcO^−, 228.48 mM, 0.30 mL applied, 0 hr after transdermal administration
outcome-measure: concentration at 0 h

What value of measured concentration at 0 h is listed for `COc1ccc2[nH]cc(CCNC(C)=O)c2c1` ?
0 ng/mL

====

Test: Transdermal delivery of melatonin: plasma level of melatonin after applying composition to skin of a subject
Conditions: human, plasma, topical, 3 mg, Plasma level of melatonin, Leucine hexyl ester hydrochloride 278.04 mM, 0.60 mL applied to skin, 4 hr after transdermal administration
outcome-measure: concentration at 4 hr (ng/mL)
Entry rule: numbers only, all in ng/mL.

Using the record for `COc1ccc2[nH]cc(CCNC(C)=O)c2c1` , report its concentration at 4 hr.
1.5
